Recorded viability, T/C, one value per entry.
Tested on: 435261-313-R-J1-PDC tumor spheroid viability
ASSAY_COMMENT: Anticancer human tumor 435261-313-R-J1-PDC patient-derived colon adenocarcinoma cell line growth inhibition [PI3K]
CONDITION: second compound 10 µM; first compound 10 µM; hits give low values; spheroids with HUVEC and MSC
// note: answer is a bare numeric in %

[[record]]
compound = "CC(Cn1ccc(-c2ccc(C#N)c(Cl)c2)n1)NC(=O)c1cc(C(C)O)[nH]n1 (centres undefined) + CC(Nc1ncnc2nc[nH]c12)c1cc2cccc(Cl)c2c(=O)n1-c1ccccc1"
measurement_kind = "viability, T/C"
display_unit = "%"
number = 42

[[record]]
compound = "CC1(C)CCC(CN2CCN(c3ccc(C(=O)NS(=O)(=O)c4ccc(NCC5CCOCC5)c([N+](=O)[O-])c4)c(Oc4cnc5[nH]ccc5c4)c3)CC2)=C(c2ccc(Cl)cc2)C1 + CC(Nc1ncnc2nc[nH]c12)c1cc2cccc(Cl)c2c(=O)n1-c1ccccc1"
measurement_kind = "viability, T/C"
display_unit = "%"
number = 43.9

[[record]]
compound = "Cn1nccc1Nc1nccc(-c2ccn(C(CO)c3ccc(Cl)c(F)c3)c(=O)c2)n1 (centres undefined) + Cc1nc(NC(=O)N2CCCC2C(N)=O)sc1-c1ccnc(C(C)(C)C(F)(F)F)c1"
measurement_kind = "viability, T/C"
display_unit = "%"
number = 0.24


For the compound C#Cc1c(F)ccc2cc(O)cc(-c3ncc4c(N5CC6CCC(C5)N6)nc(OCC56CCCN5CC(F)C6)nc4c3F)c12 (centres undefined) + CC(Nc1ncnc2nc[nH]c12)c1cc2cccc(Cl)c2c(=O)n1-c1ccccc1 , the measured viability, T/C on 435261-313-R-J1-PDC tumor spheroid viability was 13.7

Given the compound C#Cc1c(F)ccc2cc(O)cc(-c3ncc4c(N5CC6CCC(C5)N6)nc(OCC56CCCN5CC(F)C6)nc4c3F)c12 (centres undefined) + Cc1nc(NC(=O)N2CCCC2C(N)=O)sc1-c1ccnc(C(C)(C)C(F)(F)F)c1 and test system 435261-313-R-J1-PDC tumor spheroid viability, the measured viability, T/C is 0.32

The compound CC1(C)CCC(Nc2ncc(C(F)(F)F)c(-c3c[nH]c4c(P(C)(C)=O)c(C#N)ccc34)n2)CN1 (centres undefined) + Cc1nc(NC(=O)N2CCCC2C(N)=O)sc1-c1ccnc(C(C)(C)C(F)(F)F)c1 , tested on 435261-313-R-J1-PDC tumor spheroid viability, showed viability, T/C of 1.22

Note to self: viability, T/C of CC(C)NCC(C(=O)N1CCN(c2ncnc3c2C(C)CC3O)CC1)c1ccc(Cl)cc1 (centres undefined) + CC(Nc1ncnc2nc[nH]c12)c1cc2cccc(Cl)c2c(=O)n1-c1ccccc1 with 435261-313-R-J1-PDC tumor spheroid viability was 14.9

The compound CNC(=O)c1ccc(N2C(=S)N(c3ccc(C#N)c(C(F)(F)F)c3)C(=O)C2(C)C)cc1F + CC(Nc1ncnc2nc[nH]c12)c1cc2cccc(Cl)c2c(=O)n1-c1ccccc1 , when measured on 435261-313-R-J1-PDC tumor spheroid viability, yielded viability, T/C of 39.8

Summary line: C[C@@H](NC(=O)c1ncnc(N)c1Cl)c1ncc(C(=O)Nc2cc(C(F)(F)F)c(Cl)cn2)s1 + CC(Nc1ncnc2nc[nH]c12)c1cc2cccc(Cl)c2c(=O)n1-c1ccccc1 , 435261-313-R-J1-PDC tumor spheroid viability, reported viability, T/C = 39.9

Field viability, T/C (435261-313-R-J1-PDC tumor spheroid viability), entry Cn1ncc(Cl)c1-c1cc(C(=O)NC(CN)Cc2cccc(F)c2)sc1Cl (centres undefined) + CC(Nc1ncnc2nc[nH]c12)c1cc2cccc(Cl)c2c(=O)n1-c1ccccc1 : 6.29

Here C=CC(=O)N1CCN(c2nc(=O)n(-c3c(C)ccnc3C(C)C)c3nc(-c4c(O)cccc4F)c(F)cc23)C(C)C1 (centres undefined) + CC(Nc1ncnc2nc[nH]c12)c1cc2cccc(Cl)c2c(=O)n1-c1ccccc1 was tested on 435261-313-R-J1-PDC tumor spheroid viability, and its viability, T/C came to 66.4

Short answer on 435261-313-R-J1-PDC tumor spheroid viability for CC1(C)CCC(CN2CCN(c3ccc(C(=O)NS(=O)(=O)c4ccc(NCC5CCOCC5)c([N+](=O)[O-])c4)c(Oc4cnc5[nH]ccc5c4)c3)CC2)=C(c2ccc(Cl)cc2)C1 + Cc1nc(NC(=O)N2CCCC2C(N)=O)sc1-c1ccnc(C(C)(C)C(F)(F)F)c1 , viability, T/C: 2.21

====

Test system: 435261-313-R-J1-PDC tumor spheroid viability
ASSAY_COMMENT: Anticancer human tumor 435261-313-R-J1-PDC cell line growth inhibition [PI3K];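 further: spheroids exposed to compounds for 7 days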
CONDITION: second compound 0.1 µM; first compound 0.316 µM; hits give low values; spheroids with HUVEC and MSC
MEASUREMENT_KIND: viability, T/C

Below, each entry is followed by its recorded viability, T/C result.
[[record]]
compound = "C#Cc1c(F)ccc2cc(O)cc(-c3ncc4c(N5CC6CCC(C5)N6)nc(OCC56CCCN5CC(F)C6)nc4c3F)c12 (stereo not drawn) + Cc1nc(NC(=O)N2CCCC2C(N)=O)sc1-c1ccnc(C(C)(C)C(F)(F)F)c1"
measurement_kind = "viability, T/C"
result = "98.3%"

[[record]]
compound = "CC1(C)CCC(Nc2ncc(C(F)(F)F)c(-c3c[nH]c4c(P(C)(C)=O)c(C#N)ccc34)n2)CN1 (stereo not drawn) + CC(Nc1ccc2c(c1)OCCn1cc(N3C(=O)OCC3C(F)F)nc1-2)C(N)=O"
measurement_kind = "viability, T/C"
result = "27.2%"


Looking up CC1(C)CCC(Nc2ncc(C(F)(F)F)c(-c3c[nH]c4c(P(C)(C)=O)c(C#N)ccc34)n2)CN1 (stereo not drawn) + Cc1nc(NC(=O)N2CCCC2C(N)=O)sc1-c1ccnc(C(C)(C)C(F)(F)F)c1 , I see its viability, T/C listed as 41.9%

====

System: 435261-313-R-J1-PDC tumor spheroid viability
ASSAY_COMMENT: Anticancer human tumor 435261-313-R-J1-PDC cell line growth inhibition [PI3K];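 further: spheroids exposed to compounds for 7 days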
CONDITION: second compound 0.0316 µM; first compound 0.0316 µM; hits give low values; spheroids with HUVEC and MSC
Excerpt: Combinatorial screen of targeted agents with the PI3K inhibitors inavolisib, alpelisib, duvelisib, and copanlisib in multi-cell type tumor spheroids A high-throughput screen of multi-cell type tumor spheroids was designed to identify active combinations of targeted small molecules and PI3K pathway inhibitors. […] Compounds. […] If the clinical Cmax for an agent had not been determined, the highest concentration tested was 10 microM. […]
Below, each of the molecules is paired with its reported viability, T/C value.

Consider the reported viability, T/C for these molecules:
[[record]]
molecule = "C#Cc1c(F)ccc2cc(O)cc(-c3ncc4c(N5CC6CCC(C5)N6)nc(OCC56CCCN5CC(F)C6)nc4c3F)c12 (stereo not drawn) + Cc1nc(NC(=O)N2CCCC2C(N)=O)sc1-c1ccnc(C(C)(C)C(F)(F)F)c1"
result = "73.7%"

[[record]]
molecule = "CC(Cn1ccc(-c2ccc(C#N)c(Cl)c2)n1)NC(=O)c1cc(C(C)O)[nH]n1 (stereo not drawn) + CC(Nc1ccc2c(c1)OCCn1cc(N3C(=O)OCC3C(F)F)nc1-2)C(N)=O"
result = "74.5%"


Now, please, on to the next molecule.
# viability, T/C (molecule: Cn1ncnc1[C@H]1c2n[nH]c(=O)c3cc(F)cc(c23)N[C@@H]1c1ccc(F)cc1 + Cc1nc(NC(=O)N2CCCC2C(N)=O)sc1-c1ccnc(C(C)(C)C(F)(F)F)c1 ) is 79.1%

====

Test system: 435261-313-R-J1-PDC tumor spheroid viability
ASSAY_COMMENT: Anticancer human tumor 435261-313-R-J1-PDC cell line growth inhibition [PI3K];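 further: spheroids exposed to compounds for 7 days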
CONDITION: second compound 0.1 µM; first compound 1 µM; hits give low values; spheroids with HUVEC and MSC
MEASUREMENT_KIND: viability, T/C (%)
Provide only the numeric value, understood in %.

[[record]]
molecule = "C=CC(=O)N1CCN(c2nc(=O)n(-c3c(C)ccnc3C(C)C)c3nc(-c4c(O)cccc4F)c(F)cc23)C(C)C1 (stereo unspecified) + COc1c(OCCCN2CCOCC2)ccc2c3n(c(=NC(=O)c4cnc(N)nc4)nc12)CCN3"
display_unit = "%"
number = 18.7

[[record]]
molecule = "CC1(C)CCC(CN2CCN(c3ccc(C(=O)NS(=O)(=O)c4ccc(NCC5CCOCC5)c([N+](=O)[O-])c4)c(Oc4cnc5[nH]ccc5c4)c3)CC2)=C(c2ccc(Cl)cc2)C1 + Cc1nc(NC(=O)N2CCCC2C(N)=O)sc1-c1ccnc(C(C)(C)C(F)(F)F)c1"
display_unit = "%"
number = 69.1

[[record]]
molecule = "CNC(=O)c1ccc(N2C(=S)N(c3ccc(C#N)c(C(F)(F)F)c3)C(=O)C2(C)C)cc1F + CC(Nc1ccc2c(c1)OCCn1cc(N3C(=O)OCC3C(F)F)nc1-2)C(N)=O"
display_unit = "%"
number = 51.9

[[record]]
molecule = "C[C@@H](NC(=O)c1ncnc(N)c1Cl)c1ncc(C(=O)Nc2cc(C(F)(F)F)c(Cl)cn2)s1 + CC(Nc1ncnc2nc[nH]c12)c1cc2cccc(Cl)c2c(=O)n1-c1ccccc1"
display_unit = "%"
number = 144

[[record]]
molecule = "Cn1nccc1Nc1nccc(-c2ccn(C(CO)c3ccc(Cl)c(F)c3)c(=O)c2)n1 (stereo unspecified) + Cc1nc(NC(=O)N2CCCC2C(N)=O)sc1-c1ccnc(C(C)(C)C(F)(F)F)c1"
display_unit = "%"
number = 18.5

[[record]]
molecule = "CCN1CCN(Cc2ccc(Nc3ncc(F)c(-c4cc(F)c5nc(C)n(C(C)C)c5c4)n3)nc2)CC1 + COc1c(OCCCN2CCOCC2)ccc2c3n(c(=NC(=O)c4cnc(N)nc4)nc12)CCN3"
display_unit = "%"
number = 16.7

[[record]]
molecule = "Cn1ncc(Cl)c1-c1cc(C(=O)NC(CN)Cc2cccc(F)c2)sc1Cl (stereo unspecified) + CC(Nc1ncnc2nc[nH]c12)c1cc2cccc(Cl)c2c(=O)n1-c1ccccc1"
display_unit = "%"
number = 39.9

[[record]]
molecule = "CCN1CCN(Cc2ccc(Nc3ncc(F)c(-c4cc(F)c5nc(C)n(C(C)C)c5c4)n3)nc2)CC1 + CC(Nc1ncnc2nc[nH]c12)c1cc2cccc(Cl)c2c(=O)n1-c1ccccc1"
display_unit = "%"
number = 60.4

[[record]]
molecule = "Cn1nccc1Nc1nccc(-c2ccn(C(CO)c3ccc(Cl)c(F)c3)c(=O)c2)n1 (stereo unspecified) + CC(Nc1ncnc2nc[nH]c12)c1cc2cccc(Cl)c2c(=O)n1-c1ccccc1"
display_unit = "%"
number = 43.6

[[record]]
molecule = "C#Cc1c(F)ccc2cc(O)cc(-c3ncc4c(N5CC6CCC(C5)N6)nc(OCC56CCCN5CC(F)C6)nc4c3F)c12 (stereo unspecified) + Cc1nc(NC(=O)N2CCCC2C(N)=O)sc1-c1ccnc(C(C)(C)C(F)(F)F)c1"
display_unit = "%"
number = 58.2


viability, T/C reported for this molecule CC(C)NCC(C(=O)N1CCN(c2ncnc3c2C(C)CC3O)CC1)c1ccc(Cl)cc1 (stereo unspecified) + COc1c(OCCCN2CCOCC2)ccc2c3n(c(=NC(=O)c4cnc(N)nc4)nc12)CCN3 : 14.3
